Origin of measurements: patent US4891374A

assay: in vivo; details: rat, po
Structures can show the parent of a compound that is named as a salt.
Kindly state TD50 at 24 h for each of the entries shown.

input: Record request: TD50 at 24 h value, item CC1Sc2nncn2N=C1c1cc(C(C)(C)C)c(O)c(C(C)(C)C)c1 (stereo not drawn) [Example 5]
output: > 200 mg/kg

input: And then CC(C)(C)c1cc(C2=NN3CCN=C3SC2)cc(C(C)(C)C)c1O [Example 1, hydrochloride] , what is it?
output: 400 mg/kg

input: And then CC(C)(C)c1cc(C2=NN3CC(=O)N=C3SC2)cc(C(C)(C)C)c1O [Example 6, hydrobromide] , what is it?
output: > 200 mg/kg

input: And then CC(C)(C)c1cc(C2=Nn3ccnc3SC2)cc(C(C)(C)C)c1O [Example 4, hydrochloride] , what is it?
output: > 200 mg/kg

input: And then CC1SC2=NCCN2N=C1c1cc(C(C)(C)C)c(O)c(C(C)(C)C)c1 (stereo not drawn) [Example 2, hydrochloride] , what is it?
output: 200 mg/kg

input: And then CC(C)(C)c1cc(C2=NN3C(=O)CN=C3SC2)cc(C(C)(C)C)c1O [Example 7, hydrobromide] , what is it?
output: > 200 mg/kg
